Entry source: ChEMBL document CHEMBL5126539

Test system: RPMI-8226
RUN_DESCRIPTION: Cytotoxicity against human RPMI-8226 cells assessed as inhibition of cell growth incubated for 48 hrs by MTT assay
Format: functional, cell-based
MEASUREMENT_SETUP: RPMI-8226, 48 h
PROPERTY_NAME: IC50 (nM)
Response body: numeric value in nM, unit text excluded.

query: Provide one value: measured IC50 of `N#CSCc1ccc(CN2C(=O)C(=O)c3cc(Br)cc(Br)c32)cc1`
result: 500

###

TARGET_OR_TEST_SYSTEM: Tyrosine-protein kinase JAK3 (Homo sapiens)
Sequence (P52333 whole entry): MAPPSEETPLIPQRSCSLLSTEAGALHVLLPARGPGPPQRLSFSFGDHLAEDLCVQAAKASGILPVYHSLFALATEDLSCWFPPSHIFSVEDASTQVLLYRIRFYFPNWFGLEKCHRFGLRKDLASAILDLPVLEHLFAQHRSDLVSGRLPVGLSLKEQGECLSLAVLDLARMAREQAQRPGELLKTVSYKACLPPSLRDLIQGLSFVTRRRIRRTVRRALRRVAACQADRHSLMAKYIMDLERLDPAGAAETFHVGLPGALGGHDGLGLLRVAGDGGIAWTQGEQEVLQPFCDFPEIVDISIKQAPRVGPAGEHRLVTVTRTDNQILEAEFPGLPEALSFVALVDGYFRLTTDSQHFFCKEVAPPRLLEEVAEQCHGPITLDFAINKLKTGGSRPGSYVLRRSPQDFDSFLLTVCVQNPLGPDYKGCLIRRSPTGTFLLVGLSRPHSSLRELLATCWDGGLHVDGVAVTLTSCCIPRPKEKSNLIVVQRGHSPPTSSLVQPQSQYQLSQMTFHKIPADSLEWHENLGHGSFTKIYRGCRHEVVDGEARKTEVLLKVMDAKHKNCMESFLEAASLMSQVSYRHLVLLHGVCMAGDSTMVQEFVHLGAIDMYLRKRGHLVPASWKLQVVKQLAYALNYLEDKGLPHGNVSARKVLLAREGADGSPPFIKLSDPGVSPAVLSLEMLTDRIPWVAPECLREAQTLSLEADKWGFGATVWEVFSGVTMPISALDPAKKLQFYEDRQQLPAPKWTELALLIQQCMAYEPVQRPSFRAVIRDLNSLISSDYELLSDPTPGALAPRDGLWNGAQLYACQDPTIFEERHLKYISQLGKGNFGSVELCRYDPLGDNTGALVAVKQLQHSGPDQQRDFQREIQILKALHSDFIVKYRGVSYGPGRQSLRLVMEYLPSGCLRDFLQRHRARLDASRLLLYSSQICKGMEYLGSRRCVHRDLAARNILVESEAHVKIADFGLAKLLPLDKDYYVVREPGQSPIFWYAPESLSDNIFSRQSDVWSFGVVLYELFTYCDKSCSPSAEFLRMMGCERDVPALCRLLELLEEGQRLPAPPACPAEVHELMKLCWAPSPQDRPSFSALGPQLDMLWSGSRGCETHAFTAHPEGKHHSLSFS
RUN_DESCRIPTION: Inhibition of recombinant JAK3 (unknown origin)
pIC50: −log10 of the molar value.
PROPERTY_NAME: pIC50

query: Please tell me the measured pIC50 for `C=CC(=O)Nc1cccc(-c2c[nH]c3ncc(NC(=O)c4cccs4)cc23)c1` ; system: Tyrosine-protein kinase JAK3 (Homo sapiens).
result: < 5.00

###

Test system: U-266
RUN_DESCRIPTION: Cytotoxicity against human U-266 cells assessed as inhibition of cell growth incubated for 48 hrs by MTT assay
Type: functional, cell-based
MEASUREMENT_SETUP: U-266, 48 h
PROPERTY_NAME: IC50 (nM)
State just the number; it will be interpreted in nM.

query: Tell me its IC50 on U-266: `N#CSCc1ccc(CN2C(=O)C(=O)c3cc(Br)cc(Br)c32)cc1`
result: 500

###

pIC50 overview
System: DOHH-2
RUN_DESCRIPTION: Cytotoxicity against human DOHH-2 cells expressing BTK and PI3kdelta assessed as inhibition of cell growth incubated for 72 hrs by celltiter-glo assay
Type: functional, cell-based
MEASUREMENT_SETUP: DOHH-2, 72 h
Please note pIC50 is a logarithmic value: minus log10 of concentration in mol/L. Answer with that number alone.

Reference set, count: 2
query: // fetch pIC50 for `CC[C@H](Nc1ncnc2[nH]cnc12)c1nc2cccc(F)c2c(=O)n1-c1ccccc1` ; system: DOHH-2
result: 6.07

query: Specify the recorded pIC50 for Nc1ccc2c(c1)CC(n1nc(-c3cc(F)c4c(c3)NCCO4)c3c(N)ncnc31)C2 (stereo not drawn) , system: DOHH-2.
result: 5.87

Continuing:
query: Consider the molecule `C=CC(=O)N1CCC[C@@H](n2nc(-c3ccc(Oc4ccccc4)cc3)c3c(N)ncnc32)C1` tested on DOHH-2; state its pIC50.
result: 7.64

###

Test system: BaF3
RUN_DESCRIPTION: Antiproliferative activity against mouse BaF3 cells expressing […] FLT3 ITD F691L mutant assessed as inhibition of cell growth
Format: functional, cell-based
PROPERTY_NAME: IC50 (nM)
Lab book: enter the figure in nM, no units written.

query: Fill: IC50 (BaF3) for this molecule `Cc1cnc(-c2ccc(-c3ccc(NC(=O)Nc4cccc(C(F)(F)F)c4)cc3F)c3c2C(=O)NC3)[nH]1`
result: 0.43

###

TARGET_OR_TEST_SYSTEM: Tyrosine-protein kinase BTK (Homo sapiens, UniProt Q06187)
Sequence (Q06187 whole entry): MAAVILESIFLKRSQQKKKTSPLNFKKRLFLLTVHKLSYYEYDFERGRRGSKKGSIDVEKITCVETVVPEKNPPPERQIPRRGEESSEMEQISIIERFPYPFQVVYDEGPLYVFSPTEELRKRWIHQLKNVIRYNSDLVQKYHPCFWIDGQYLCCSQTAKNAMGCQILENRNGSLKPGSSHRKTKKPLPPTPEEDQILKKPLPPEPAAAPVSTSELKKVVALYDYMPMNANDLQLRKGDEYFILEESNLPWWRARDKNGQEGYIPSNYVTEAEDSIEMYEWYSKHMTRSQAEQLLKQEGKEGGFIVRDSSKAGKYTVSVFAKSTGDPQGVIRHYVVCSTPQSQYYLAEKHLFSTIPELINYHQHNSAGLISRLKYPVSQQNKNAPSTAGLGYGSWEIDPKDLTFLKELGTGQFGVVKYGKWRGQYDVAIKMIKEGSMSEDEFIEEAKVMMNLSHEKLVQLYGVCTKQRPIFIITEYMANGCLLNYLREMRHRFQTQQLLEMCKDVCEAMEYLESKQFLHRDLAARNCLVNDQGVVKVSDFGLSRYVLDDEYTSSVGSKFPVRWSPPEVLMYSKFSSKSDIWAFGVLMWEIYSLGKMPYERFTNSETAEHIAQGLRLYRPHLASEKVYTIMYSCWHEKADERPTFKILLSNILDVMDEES
RUN_DESCRIPTION: Inhibition of N-terminal His6-tagged human full length recombinant BTK expressed in baculovirus infected Sf21 insect cells using YIYGSFK as substrate preincubated for 5 mins followed by 33p-labeled ATP addition and measured after 1 hr by thin layer chromatography
PROPERTY_NAME: IC50 (µM)
Give the value in µM but do not write µM after it.

query: Report measured IC50; entry is `CC(C)Cc1nc2cc3c(cc2[nH]c1=O)nc(NC(=O)c1ccc(-c2ccncc2)cc1)n3CCCN1CCCCC1`
result: 0.05
